test: reversal of MRP1-mediated doxorubicin resistance, pilot screen, H69AR cells, doxorubicin co-treatment (AID 601); conditions: H69AR cells + 2 uM doxorubicin, CellTiter-Glo, 72 h; measured here: viability with 2 uM doxorubicin; at 10 µM; stronger effect = lower value
MEASURED QUANTITY: viability
Reply with a number, then the unit it belongs to.

# example entries with known answers
> print(dat)
                                   compound  measured.value
1          O=C(O)c1cc(/C=N\O)ccc1OCc1ccccc1           91.2%
2  O=C(c1cc(S(=O)(=O)N2CCOCC2)ccc1F)N1CCCc2ccccc21           94.3%
3  CCOC(=O)c1c(C)n(C)c2ccc(OC)c(NC(=O)CCN3CCSCC3)c12           85.1%
4  COc1cccc(NC(=O)N2CCN(C(=O)C(Cc3ccc(OC)c(OC)c3)NC(C)=O)CC2)c1 (centres undefined)           88.5%
5  CCOc1ccc(C(=O)N(Cc2ccc(N(C)C)cc2)C2CCS(=O)(=O)C2)cc1 (centres undefined)            105%

Looking up Cc1ccc2nc(NCCCN3CCOCC3)c(C=NCCCN3CCOCC3)c(=O)n2c1 , I see its viability listed as 86.6%

For record CCOCCCNc1ncnc2c1[nH]c1ccccc12 the listed viability is 104%

Per the records, this compound ( COc1ccccc1S(=O)(=O)n1cc(Cc2ccccc2)c(N)n1 ) has viability equal to 98.5%

The compound identified as CC(C)(C)NC(=O)Nc1ccccc1C(N)=O registered its viability at 103%

Just so you know, measured viability for CCOC(=O)c1ccc(CC2S/C(=C(\C#N)C(C)=O)NC2=O)cc1 (centres undefined) came out at 93.7%

Just so you know, measured viability for Cn1cc(Br)c(C(=O)NC2CCCCC2)n1 came out at 90.9%

Looking up O=C(CSCc1cccc(F)c1)N1CCN(c2ccccc2)CC1 , I see its viability listed as 96%

Per the record, Cc1nc2ncnn2c(Nc2ccc3c(c2)OCCO3)c1C has viability of 97.3%

For O=C(Nc1ccccc1)N(CCN1CCOCC1)Cc1ccccc1F the compound record lists viability as 108%

viability measured on O=C(c1ccccc1)c1coc2ccc(O)c(CN3CCOCC3)c12 = 97.8%

Per the records, this compound ( COC(=O)CC1C(=O)NCCN1C(=O)NC1CCCCC1 (centres undefined) ) has viability equal to 91.7%

Recorded result, COC(=O)c1cc(NC(=O)C2CC=CCC2C(=O)O)cc(C(=O)OC)c1 (centres undefined) , viability: 92.7%

Looking up O=C(O)CCc1ccc(-c2cccs2)o1 , I see its viability listed as 91.6%
